Please provide measured degraded at 3 h, 25 ppm for the entries that follow.
# protocol: Stability of the compound in DMEM media assessed as compound degradation at 25 ppm after 3 hrs by HPLC
# Type: physicochemical
# conditions-used: read-out: Activity

Task item: Please look up its degraded at 3 h, 25 ppm: COc1cc(O)c2c(=O)c(O)c(-c3ccc(O)c(O)c3)oc2c1
Reply: 4%

Task item: Now consider O=c1c(O)c(-c2ccc(O)c(O)c2)oc2cc(O)cc(O)c12 and answer again.
Reply: 60%
